Molecular target: 5HT2A (Homo sapiens, UniProt P28223)
Sequence (P28223 whole entry): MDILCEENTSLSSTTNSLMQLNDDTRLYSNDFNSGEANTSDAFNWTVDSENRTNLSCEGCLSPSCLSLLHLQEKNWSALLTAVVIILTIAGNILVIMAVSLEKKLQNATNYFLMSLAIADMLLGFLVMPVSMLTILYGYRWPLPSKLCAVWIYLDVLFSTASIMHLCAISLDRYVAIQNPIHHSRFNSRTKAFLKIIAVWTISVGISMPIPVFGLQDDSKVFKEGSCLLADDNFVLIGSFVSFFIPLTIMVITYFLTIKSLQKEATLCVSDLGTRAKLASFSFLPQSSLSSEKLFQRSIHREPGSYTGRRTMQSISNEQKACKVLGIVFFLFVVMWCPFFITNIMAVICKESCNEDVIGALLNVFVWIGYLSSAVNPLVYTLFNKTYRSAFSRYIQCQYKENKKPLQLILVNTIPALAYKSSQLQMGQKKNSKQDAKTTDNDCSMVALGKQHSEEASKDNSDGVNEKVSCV
Test: Receptor Selection and Amplification (R-SAT) functional assay
Type: cell-based
Set-up: expressed in transfected cells; host or cells: NIH3T3 cells, pSI mammalian expression vector
Details: NIH3T3 cells; Ki from IC50 by Cheng and Prussoff; read-out: 5-HT2a (pKi) (R-SAT) (converted)
EXPERIMENTAL_READOUT: Ki (nM)

[A] COc1cc(OC(C)C)ccc1CNC(=O)N(Cc1ccc(F)cc1F)C1CCN(C)CC1
[B] CN1CCC(N(Cc2ccc(F)cc2F)C(=O)NCc2ccc(OC(CF)CF)cc2)CC1
[C] CN1CCC(N(Cc2ccc(F)cc2F)C(=O)NCc2ccc([C@H](O)CO)cc2)CC1 (racemic)
For the molecules shown above, give the order from largest Ki to smallest. Answer format: the labels, ordered as requested.
C, A, B
(C: 100 nM, A: 39.8 nM, B: 1.58 nM)

* * *

Biological target: 5HT2A (Homo sapiens, UniProt P28223)
Assay: Receptor Selection and Amplification (R-SAT) functional assay
Assay type: cell-based
Design: expressed in transfected cells; host or cells: NIH3T3 cells, pSI mammalian expression vector
Conditions: NIH3T3 cells; Ki from IC50 by Cheng and Prussoff; read-out: 5-HT2a (pKi) (R-SAT) (converted)
EXPERIMENTAL_READOUT: Ki (nM)

Consider the worked cases shown below.
{"COMPOUND": "CCCCOc1ccc(CNC(=O)N(Cc2ccc(F)cc2F)C2CCN(C)CC2)cc1 [Example 124]", "TARGET": "5HT2A (Homo sapiens, UniProt P28223)", "OBS_VALUE": 10}
{"COMPOUND": "COc1cc(F)c(CNC(=O)N(Cc2ccc(F)cc2F)C2CCN(C)CC2)c(F)c1 [Example 150, Trifluoroacetic Acid]", "TARGET": "5HT2A (Homo sapiens, UniProt P28223)", "OBS_VALUE": 5.01}
{"COMPOUND": "Cc1cc(OC(C)C)ccc1CNC(=O)N(Cc1ccc(F)cc1F)C1CCN(C)CC1 [Example 116]", "TARGET": "5HT2A (Homo sapiens, UniProt P28223)", "OBS_VALUE": 63.1}

[I] C=CCOc1ccc(CNC(=O)N(Cc2ccc(F)cc2F)C2CCN(C)CC2)cc1 [Example 19]
[II] Cc1ccc(CN(C(=O)NCc2ccc(OC(C)C)cc2)C2CCN(C)CC2)c(F)c1 [Example 115, Trifluoroacetic Acid]
Hi there! Just curious which has the higher Ki between I and II . Pick one and reply with its label.
I

[P] CC(C)COc1ccc(CNC(=O)N(Cc2c(F)cccc2F)C2CCN(C)CC2)cc1 [Example 72]
[Q] CN1CCC(N(Cc2ccc(F)cc2F)C(=O)NCc2ccc3occc3c2)CC1 [Example 20]
[R] COc1cc(F)c(F)cc1CN(C(=O)NCc1ccc(OC(C)C)cc1)C1CCNCC1 [Example 83, Trifluoroacetic Acid]
Task field, ranking: reported Ki, descending order. Answer by naming the labels in the order asked.
R, P, Q

* * *

Target: hERG potassium channel (Homo sapiens, UniProt Q12809)
Sequence (Q12809 whole entry): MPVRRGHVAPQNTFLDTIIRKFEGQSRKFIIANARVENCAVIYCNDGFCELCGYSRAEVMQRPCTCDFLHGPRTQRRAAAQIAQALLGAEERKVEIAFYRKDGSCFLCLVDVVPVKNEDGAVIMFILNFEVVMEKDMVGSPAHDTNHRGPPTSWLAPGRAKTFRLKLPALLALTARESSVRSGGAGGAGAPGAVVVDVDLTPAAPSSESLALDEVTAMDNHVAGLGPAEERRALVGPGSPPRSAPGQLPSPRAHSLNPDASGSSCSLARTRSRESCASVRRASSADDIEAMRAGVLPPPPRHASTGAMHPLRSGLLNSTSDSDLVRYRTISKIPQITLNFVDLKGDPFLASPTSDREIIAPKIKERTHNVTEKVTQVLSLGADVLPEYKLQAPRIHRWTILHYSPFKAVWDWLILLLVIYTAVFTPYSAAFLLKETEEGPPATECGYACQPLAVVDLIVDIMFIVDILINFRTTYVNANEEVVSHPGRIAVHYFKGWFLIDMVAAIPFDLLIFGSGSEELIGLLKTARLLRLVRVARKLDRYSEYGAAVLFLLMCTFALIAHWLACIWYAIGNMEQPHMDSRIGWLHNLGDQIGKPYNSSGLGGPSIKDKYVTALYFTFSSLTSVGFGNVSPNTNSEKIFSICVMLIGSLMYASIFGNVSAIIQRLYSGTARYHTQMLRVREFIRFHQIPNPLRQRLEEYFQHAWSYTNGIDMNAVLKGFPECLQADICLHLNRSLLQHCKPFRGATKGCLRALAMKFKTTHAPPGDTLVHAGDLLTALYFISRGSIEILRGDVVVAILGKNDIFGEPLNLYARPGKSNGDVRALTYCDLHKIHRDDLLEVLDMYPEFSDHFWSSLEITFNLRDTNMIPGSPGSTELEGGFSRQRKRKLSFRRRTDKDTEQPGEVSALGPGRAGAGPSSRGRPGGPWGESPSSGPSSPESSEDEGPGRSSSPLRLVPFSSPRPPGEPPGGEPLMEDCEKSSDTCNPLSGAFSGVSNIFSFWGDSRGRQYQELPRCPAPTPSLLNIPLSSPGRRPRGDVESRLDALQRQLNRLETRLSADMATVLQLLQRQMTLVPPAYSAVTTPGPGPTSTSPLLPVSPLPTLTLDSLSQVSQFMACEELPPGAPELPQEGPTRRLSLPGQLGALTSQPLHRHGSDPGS
Assay: hERG manual patch clamp, HEK293 cells (CR-CLE)
Measured pIC50 by item
Scale for pIC50: -log10 of concentration given in mol/L; no unit attached.

{"CHEMICAL_STRING": "CC(C)Oc1ccc(CNC(=O)N(Cc2ccc(F)cc2F)C2CCN(C)CC2)cc1", "OBS_VALUE": 5.74}
{"CHEMICAL_STRING": "CN1CCC(N(Cc2ccc(F)cc2F)C(=O)NCc2ccc(OC3CC3)cc2)CC1", "OBS_VALUE": 5.74}

Which pIC50 reading was recorded for the compound CC(C)COc1ccc(CNC(=O)N(Cc2ccc(F)cc2F)C2CCN(C)CC2)cc1 ?
6.30

* * *

Target: 5HT2A (Homo sapiens)
Test: Receptor Selection and Amplification (R-SAT) functional assay
Format: cell-based
Parameters: expressed in transfected cells; host or cells: NIH3T3 cells, pSI mammalian expression vector
Conditions: NIH3T3 cells; Ki from IC50 by Cheng and Prussoff; read-out: 5-HT2a (pKi) (R-SAT) (converted)
EXPERIMENTAL_READOUT: Ki (nM)

Some entries whose results are on file:
{"COMPOUND": "CC(C)Oc1ccc(CNC(=O)N(Cc2ccc(Cl)cc2F)C2CCN(C)CC2)cc1", "Ki [nM]": 3.98}
{"COMPOUND": "CC(C)COc1ccc(CNC(=O)N(Cc2ccc(F)cc2N(C)C)C2CCN(C)CC2)cc1", "Ki [nM]": 631}
{"COMPOUND": "COc1ccc(CN(C(=O)NCc2ccc(OCC(C)C)cc2)C2CCN(C)CC2)c(Cl)c1", "Ki [nM]": 100}
{"COMPOUND": "CN1CCC(N(Cc2ccc(F)cc2F)C(=O)NCc2ccc3ocnc3c2)CC1", "Ki [nM]": 63.1}
{"COMPOUND": "CCCCC(CC)COc1ccc(CNC(=O)N(Cc2ccc(F)cc2F)C2CCN(C)CC2)cc1 (stereo not drawn)", "Ki [nM]": 3.16}
{"COMPOUND": "CC(C)COc1ccc(CNC(=O)N(Cc2ccc(F)cc2O)C2CCN(C)CC2)cc1", "Ki [nM]": 0.0794}

[1] CC(C)Oc1ccc(CNC(=O)N(Cc2ccc(F)c(F)c2F)C2CCN(C)CC2)cc1
[2] COc1ccc(CNC(=O)N(Cc2ccc(F)cc2)[C@H]2CCN(C)C[C@H]2F)c(OC)c1 (racemic)
Please indicate which item has the smaller measured Ki: 1 versus 2 Reply briefly: the label of your chosen item.
1
(1: 15.8 nM, 2: 25.1 nM)

* * *

Target: 5HT2A (Homo sapiens)
Test: Beta-arrestin recruitment assay (Tango technology, antagonist mode)
Type: cell-based
Parameters: engineered protease cleavage site followed by tethered transcription factor (C)
Details: read-out: 5HT2A (pIC50) Beta-arrestin (converted)
EXPERIMENTAL_READOUT: IC50 (nM)

[A] Cc1c[nH]c2ccc(CNC(=O)N(Cc3ccc(F)cc3F)C3CCN(C)CC3)cc12
[B] Cc1cc2cc(CNC(=O)N(Cc3ccc(F)cc3F)C3CCN(C)CC3)ccc2[nH]1
Please indicate which entry, A or B , has the lower recorded IC50 value. API: response body contains the label of the selected item.
B
(B: 25.1 nM, A: 200 nM)

* * *

Biological target: UniProt P28223
Assay: Receptor Selection and Amplification (R-SAT) functional assay
Type: cell-based
Design: expressed in transfected cells; host or cells: NIH3T3 cells, pSI mammalian expression vector
Settings: NIH3T3 cells; Ki from IC50 by Cheng and Prussoff; read-out: 5-HT2a (pKi) (R-SAT) (converted)
EXPERIMENTAL_READOUT: Ki (nM)

Reference set, count: 3
{"COMPOUND": "CN1CCC(N(Cc2ccc(F)cc2)C(=O)NCc2ccc(F)cc2F)CC1", "EXPERIMENTAL_READOUT": "Ki", "OBS_VALUE": 20}
{"COMPOUND": "O=C(O)C(F)(F)F.[2H]C1([2H])Oc2ccc(CNC(=O)N(Cc3ccc(F)cc3F)C3CCN(C)CC3)cc2C1([2H])[2H]", "EXPERIMENTAL_READOUT": "Ki", "OBS_VALUE": 7.94}
{"COMPOUND": "CC(C)COc1ccc(CNC(=O)N(Cc2ccc(F)cc2Cl)C2CCN(C)CC2)cc1", "EXPERIMENTAL_READOUT": "Ki", "OBS_VALUE": 79.4}

[I] CN1CCC(N(Cc2ccc(F)cc2F)C(=O)NCc2ccc3c(c2)C(C)(C)CO3)CC1
[II] CC(C)COc1ccc(CNC(=O)N(Cc2ccc(F)cc2F)C2CCN(C)CC2)cc1
[III] CC(C)COc1ccc(CNC(=O)N(Cc2ccc(Cl)cc2Cl)C2CCN(C)CC2)cc1
[IV] CC(=O)Oc1cc(F)ccc1CN(C(=O)NCc1ccc(OCC(C)C)cc1)C1CCN(C)CC1 [Example 92, acetate; Trifluoroacetic Acid]
[V] CC(C)COc1ccc(CNC(=O)N(Cc2ccc(F)cc2OC(F)F)C2CCN(C)CC2)cc1
Rank by Ki (largest to smallest). Please express your ranking as an ordered list of the labels.
III, V, I, II, IV
(III: 126 nM, V: 79.4 nM, I: 7.94 nM, II: 1.26 nM, IV: 0.316 nM)

[1] CN1CCC(N(Cc2ccc(F)cc2F)C(=O)NCc2ccc(OCCF)cc2)CC1
[2] O=C(O)C(F)(F)F.[2H]C([2H])([2H])N1CCC(N(Cc2ccc(F)cc2F)C(=O)NCc2ccc(OC(C)C)cc2)CC1
[3] CC(C)Oc1ccc(CNC(=O)N(Cc2c(F)ccc(F)c2F)C2CCN(C)CC2)cc1
// ranking: key=Ki, reverse=True As an answer, provide the labels arranged in the order called for.
3, 1, 2

[a] CN1CCC(N(Cc2ccc(F)cc2F)C(=O)NCc2ccc(OCC3CC3)cc2)CC1
[b] CN1CCC(N(Cc2ccc(F)cc2F)C(=O)NCc2ccc3c(c2)OC(C)(C)C3)CC1
[c] CC(C)COc1ccc(CNC(=O)N(Cc2ccc(Cl)cc2F)C2CCNCC2)cc1
List by increasing Ki. # list labels per requested ordering
a, c, b

[a] CCCOc1ccc(CNC(=O)N(Cc2ccc(F)cc2F)C2CCN(C)CC2)cc1
[b] CC(C)Oc1ccc(CNC(=O)N(Cc2ccc(F)cc2F)C2CCNCC2)cc1
[c] CN1CCC(N(Cc2ccc(F)cc2F)C(=O)NCc2ccc3c(c2)OCCOC3)CC1
Arrange by Ki, high to low. In plain terms: list the labels in the order you were asked to.
c, a, b
